Tested on: MCF7 breast
Experiment: NCI tumour cell line growth inhibition, 48 h
Readout name: TGI

Input line: Query for MCF7 breast: what TGI does the record show for Cc1sc2c(c1C)C(c1ccc(Cl)cc1)=N[C@@H](CC(=O)NCCCN1CCN(C)CC1)c1nnc(C)n1-2 ?
Output line: > 100 µM

Input line: Value wanted: TGI (MCF7 breast) of entry CC1=N[C@@](C)(C2CC3C=CC2C3=O)COC1=O (some centres undefined)
Output line: > 100 µM

Others:
Input line: Give recorded TGI with MCF7 breast for the following molecule: CCOC(=O)C1(N)CC1
Output line: > 100 µM

Input line: Fill in the recorded TGI for this molecule, with MCF7 breast as test system: O=C(O)C12CCC(CC1=O)C2 (centres undefined)
Output line: > 100 µM

Input line: Identify the measured TGI of COP(=O)(OC)[C@H](O)[C@H]1C[C@@H]1c1ccccc1 for MCF7 breast.
Output line: > 100 µM

Input line: Query TGI on MCF7 breast for CCOC(=O)N/N=C(\CC)OCC
Output line: > 100 µM

Input line: // map O=C1NC(=NCCc2ccccn2)S/C1=C\c1ccc2ncccc2c1 to recorded TGI (system: MCF7 breast)
Output line: > 25 µM

Input line: Form: Entry = C#CCOCn1cc(C)c(=O)[nH]c1=O | System = MCF7 breast | TGI = ____
Output line: > 100 µM

Input line: Provide value of TGI for this record tested with MCF7 breast: NC(=O)Cn1c(=O)oc2cc(C(=O)CN3CCOCC3)ccc21
Output line: > 100 µM

Input line: Fill in the recorded TGI for this molecule, with MCF7 breast as test system: O=c1c(-c2ccccc2)c(SCCN2CCOCC2)n(-c2ccccc2)c(=S)n1-c1ccccc1
Output line: > 100 µM

Input line: Lookup: TGI / MCF7 breast / CN(C)CC1CCC/C(=C\c2ccccc2)C1=O (centres undefined)
Output line: 2.18 µM

Input line: Which measured TGI belongs to COC(=O)CNc1nc(N(C)O)nc(N(C)O)n1 , tested on MCF7 breast?
Output line: > 100 µM

Input line: Test system MCF7 breast; read-out TGI; what value for CCC1(c2ccc(N)cc2)CCC(=O)NC1=O (centres undefined) ?
Output line: > 5000 µM

Input line: # get_value(readout= TGI, system= MCF7 breast) for CN(C)CCS(=O)(=O)Nc1cc(-c2ccc3ncc(C#N)c(Nc4ccc(F)c(Cl)c4)c3c2)cnc1Cl
Output line: 1.39 µM

----------
TGI by entry:
Test system: SK-MEL-5 melanoma
Test: NCI tumour cell line growth inhibition, 48 h

Input line: Would you kindly share the measured TGI for O=C1C(=O)N(c2ccc(Cl)cc2)C(=O)C(=Nc2cccc3c(=O)[nH][nH]c(=O)c23)C1c1nc2ccccc2o1 (stereo not drawn) ?
Output line: > 100 µM

Input line: Reported TGI, compound COc1ccc2c(c1)[n+]([O-])c(/C(C)=N/NC(=O)c1ccccc1O)c(C)[n+]2[O-] : ____
Output line: > 100 µM

Input line: Entry C=CCOC(=O)Nc1cccn([C@H](CC(C)C)C(=O)NCCC(C)C)c1=O : reported TGI = ?
Output line: > 100 µM

Next:
Input line: I would be grateful if you could share the reported TGI for O=C1C(c2ccccc2)=C(c2ccccc2)C(c2ccc(Sc3ccc(C4=C(c5ccccc5)C(=O)C(c5ccccc5)=C4c4ccccc4)cc3)cc2)=C1c1ccccc1 .
Output line: > 100 µM

Input line: Entry under review: Cc1ccc(C(=O)Oc2ccc(/C=C3\CCC/C(=C\c4ccc(OC(=O)c5ccc(C)cc5)cc4)C3=O)cc2)cc1 . Reported TGI?
Output line: > 100 µM

----------
Parameter GI50: see the listing below.
Test system: A498 renal
Experiment: NCI tumour cell line growth inhibition, 48 h

Input line: Which GI50 value is on record for CC(=O)N[C@@H](Cc1ccc(OP(=O)(O)O)cc1)C(=O)N[C@H]1CCC(=O)N2CCC[C@@H](C(=O)NCc3ccccc3)N2C1=O ?
Output line: > 25 µM

Input line: Any idea what its GI50 is? The compound is Cc1ccccc1C(C(=O)NC1CCCCC1)N(C(=O)CNc1ccc(C#N)cc1)c1cccc(F)c1 (stereo not drawn)
Output line: 24 µM

Input line: What value of measured GI50 is listed for CC(=O)OCCCC#CC#Cc1cccc(=O)o1 ?
Output line: 23.9 µM

New cases:
Input line: # input compound: C=C1CC2C3C=C(C)C4=CC(=O)CC[C@]4(C)C3CC[C@]2(C)[C@@]1(OC(C)=O)C(C)=O (stereo partly drawn) ; wanted: its GI50
Output line: > 100 µM

Input line: Recorded GI50 for CNC(=O)c1cccc(C#Cc2cncnc2Nc2ccc(OCc3cccc(F)c3)c(Cl)c2)c1 , please?
Output line: 1.84 µM

Input line: For C=CCOC(=O)Nc1cccn([C@H](CC(C)C)C(=O)NCCC(C)C)c1=O , what is its reported GI50?
Output line: 17.2 µM

Input line: # GI50 lookup, item COc1cc(/C=C/C(=O)c2c(-c3ccc(F)cc3)nc3sc(C)nn23)cc(OC)c1OC
Output line: 2.3 µM

Input line: For the compound O=C1NC(=NCCc2ccccn2)S/C1=C\c1ccc2ncccc2c1 , what GI50 is on record?
Output line: 4.62 µM

----------
System: OVCAR-4 ovarian
Experiment: NCI tumour cell line growth inhibition, 48 h
Listed here: items and their measured TGI.

Input line: Lookup: TGI / OVCAR-4 ovarian / N#Cc1c(N/N=C\c2ccc(Cl)cc2)nc(N)nc1N1CCOCC1
Output line: > 100 µM

Input line: Look up TGI with OVCAR-4 ovarian for this compound: Cc1cc(S(=O)(=O)NC(=NCCc2ccccc2)NN)c(S)cc1Cl
Output line: > 100 µM

Input line: Field: TGI (OVCAR-4 ovarian). Entry: O=S(=O)(O)c1ccc2c(N=Nc3ccccc3)c(O)ccc2c1
Output line: > 100 µM

Input line: Tell me reported TGI for C=CCOC(=O)Nc1cccn([C@H](CC(C)C)C(=O)NCCC(C)C)c1=O , tested with OVCAR-4 ovarian.
Output line: > 100 µM

Input line: Give recorded TGI with OVCAR-4 ovarian for the following compound: Cc1nc2c3c(ccc2[nH]c1=O)C(=O)c1ccccc1C3=O
Output line: > 100 µM

Input line: Please provide the recorded TGI for COc1ccc2c(c1)C(c1cc(OC)c3c(c1)OCO3)C1=C(COC1=O)N2 (stereo unspecified) , tested on OVCAR-4 ovarian.
Output line: > 100 µM

Input line: Param readout= TGI; system= OVCAR-4 ovarian; entry= Cc1cccc(Cl)c1NC(=O)c1cnc(Nc2cc(N3CCOCC3)cc(S(C)(=O)=O)c2)s1 ; returns value.
Output line: > 10 µM

Input line: What is its TGI for OVCAR-4 ovarian? Entry: CC(=O)N[C@@H](Cc1ccc(OP(=O)(O)O)cc1)C(=O)N[C@H]1CCC(=O)N2CCC[C@@H](C(=O)NCc3ccccc3)N2C1=O
Output line: > 25 µM

Input line: Missing value: TGI, OVCAR-4 ovarian, entry Cc1ccccc1C(C(=O)NC1CCCCC1)N(C(=O)CNc1ccc(C#N)cc1)c1cccc(F)c1 (stereo unspecified) . Fill in?
Output line: > 71.6 µM

Input line: # returns recorded TGI (system: OVCAR-4 ovarian) for CCCCCCCCCCCCCCCCCC(=O)OCC1OC(OC)C(NC(=O)N(CCCl)N=O)C(O)C1O (stereo unspecified)
Output line: 76.1 µM

Next:
Input line: Give recorded TGI with OVCAR-4 ovarian for the following compound: O=C1c2cc(F)ccc2-c2c1c1ccc([N+](=O)[O-])cc1c(=O)n2CCCBr
Output line: > 100 µM

----------
Tested on: TK-10 renal
Assay: NCI tumour cell line growth inhibition, 48 h
Readout name: TGI

Input line: Tell me the measured TGI of COC(=O)[C@@H](C)C[C@H](Cc1ccccc1)NC(=O)c1csc([C@@H](C[C@H](C(C)C)N(C)C(=O)[C@@H](NC(=O)[C@H]2CCCN2C)C2CC2)OC(C)=O)n1 , please.
Output line: > 25 µM

Input line: Return reported TGI; argument: CN1C(=O)C2(c3ccccc31)C1CC3C(CO1)C1C2C3(CO)CN1C#N (centres undefined)
Output line: > 100 µM

Input line: Using the record for COC(=O)Cn1c(=O)oc2nc(-c3ccccc3)cc(C(F)(F)F)c21 , report its TGI.
Output line: > 100 µM

Could you now consider this next molecule?
Input line: Which TGI reading was recorded for the molecule COP(=O)(OC)[C@H](O)[C@H]1C[C@@H]1c1ccccc1 ?
Output line: > 100 µM

----------
Test system: UACC-62 melanoma
Assay: NCI tumour cell line growth inhibition, 48 h
Readout name: TGI

Solved entries:
Input line: Quick check: TGI on UACC-62 melanoma, item CN(C)C=Nc1c(I)cc(I)c(CCC(=O)O)c1I ?
Output line: > 100 µM

Input line: Write down the reported TGI of CCN(CCO)CCNc1ccc(C)c2sc3ccccc3c(=O)c12 , test system: UACC-62 melanoma.
Output line: 3.34 µM

Input line: Entry O=C(CN=C(CN(c1ccccc1)c1ccccc1)Oc1ccc(Cl)cc1Cl)n1ccnc1 , system UACC-62 melanoma: what TGI was measured?
Output line: > 100 µM

Now take the following molecule into account.
Input line: Look up TGI with UACC-62 melanoma for this molecule: CCC1(c2ccc(N)cc2)CCC(=O)NC1=O (centres undefined)
Output line: > 4510 µM

// provenance: PubChem BioAssay (NCI)
